molecular target: CAAX prenyl protease 2 (Saccharomyces cerevisiae (strain ATCC 204508 / S288c)); assay: blockers of Rce1 CaaX peptide cleavage – biochemical, fluorescence, cell-free homogeneous, primary screen (AID 2563); conditions: yeast membranes, quenched prenylated peptide cleavage fluorescence
Screen size: about 290,000 compounds; about 800 (0.28%) were called active. Many of the other results were omitted from the sample, so actives are more common in it than they were.

compound	outcome
CC12CCC(=O)N1C(C(=O)Nc1ccc(F)c(F)c1F)CS2 (stereo not given)	inactive
O=C1CCCC(O)=C1N=Nc1ccc(S(=O)(=O)N2CCOCC2)cc1	inactive
O=C(COC(=O)CCOc1ccccc1)Nc1cc(S(=O)(=O)N2CCCCC2)ccc1Cl	inactive
CCOC(=O)c1cnc2nc(SCc3ccccc3Cl)[nH]n2c1=O	inactive
COc1ccc(S(=O)(=O)NCc2cccnc2)cc1NC(=O)c1ccc(C)cc1	inactive

###

target: CAAX prenyl protease 2 (Saccharomyces cerevisiae (strain ATCC 204508 / S288c)) (UniProt Q03530); experiment: blockers of Rce1 CaaX peptide cleavage – biochemical, fluorescence, cell-free homogeneous, primary screen (AID 2563); settings: yeast membranes, quenched prenylated peptide cleavage fluorescence
Sequence (Q03530 whole entry, looked up): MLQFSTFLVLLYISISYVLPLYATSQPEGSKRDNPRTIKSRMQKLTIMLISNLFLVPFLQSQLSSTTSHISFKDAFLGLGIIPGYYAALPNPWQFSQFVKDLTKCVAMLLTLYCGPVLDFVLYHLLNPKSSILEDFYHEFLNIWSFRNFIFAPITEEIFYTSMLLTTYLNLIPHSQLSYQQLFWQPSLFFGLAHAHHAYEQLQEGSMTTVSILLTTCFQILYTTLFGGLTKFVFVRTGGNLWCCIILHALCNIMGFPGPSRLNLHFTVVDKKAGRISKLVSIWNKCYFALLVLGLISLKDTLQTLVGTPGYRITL
Out of some 290,000 compounds screened, about 800 (0.28%) were called active.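 The calls were made as follows: active = fall in fluorescence gain of 50% or more versus controls, with final raw signal at or below 3038400; inconclusive = same 50% fall but final raw signal above 3038400; inactive = fall in fluorescence gain under 50%.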 For the sample, actives were picked, then their nearest neighbours and some compounds at random.
Labels: true (active), false (inactive)

compound	category
O=C(Nc1cccc(F)c1)c1cc(-c2ccco2)nc2ccccc12	false
COc1ccc(CCNC(=S)N2CCN(S(=O)(=O)c3ccc(F)cc3)CC2)cc1	false
CCCCn1c(N)c(N(CC(C)C)C(=O)C2CSC3(C)CCC(=O)N23)c(=O)[nH]c1=O (stereo unspecified)	false
CCOC(=O)C1CCN(C(=O)COC(=O)C2CCN(S(=O)(=O)c3ccc4c(c3)OCCO4)CC2)CC1	false
CN(C(=O)COC(=O)c1cc(-c2ccco2)nc2ccccc12)C1CCS(=O)(=O)C1 (stereo unspecified)	false
COc1ccc(-c2oc3ncn(Cc4ccco4)c(=N)c3c2-c2ccc(OC)cc2)cc1	true
O=c1[nH]c(/C=C/c2cccc(Br)c2)nc2ccccc12	false
Cc1ccccc1C(=O)NCC(c1ccco1)N1CCc2ccccc21 (stereo unspecified)	false
Cc1ccc(SCc2c(C(=O)N/N=C/C3CC=CCC3)nnn2-c2nonc2N)cc1 (stereo unspecified)	false
Cc1cc(C)c2nc(-c3ccco3)cc(C(=O)O)c2c1	true
O=C(Nc1ccc(N2CCCCC2)cc1)c1cc(S(=O)(=O)N2CCOCC2)ccc1F	false
O=C(c1cc(-c2ccc(Cl)s2)nc2ccccc12)N1CCOCC1	false
Cc1nc(N2CCOCC2)c2c(C)c(C(=O)Nc3ccc(C(F)(F)F)cc3)sc2n1	true
COc1ccccc1NC(=O)C(C)OC(=O)c1ccc(-n2cnnn2)cc1 (stereo unspecified)	false
Cc1cccc(N=C2SC(C)CN2C(=O)CN2C(=O)NC3(CCCC3)C2=O)c1 (stereo unspecified)	false
COc1ccc(-c2ccc3nnc(SCC(=O)Nc4ccc(NC(C)=O)cc4)n3n2)cc1	false
O=C(COc1ccc(-n2cnnn2)cc1)Nc1ccccc1Cl	false
Cc1nc(N2CCN(c3ccccn3)CC2)c2c(C)c(C(=O)Nc3ccc(F)cc3)sc2n1	false
N=c1c2c(-c3ccccc3)c(-c3ccccc3)oc2ncn1Cc1ccco1	false
CCN(CC)c1ccc(S(=O)(=O)N2CCCCC2)cc1NC(=O)C1=COCCO1	false
CCc1noc(C)c1C(=O)Nc1nc2ccc(OC)cc2s1	false

###

biological target: CAAX prenyl protease 2 (Saccharomyces cerevisiae (strain ATCC 204508 / S288c)); assay: blockers of Rce1 CaaX peptide cleavage – biochemical, fluorescence, cell-free homogeneous, primary screen (AID 2563); conditions: yeast membranes, quenched prenylated peptide cleavage fluorescence
The whole screen tested about 290,000 compounds, of which about 800 (0.28%) were called active.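 The calls were made as follows: active = fall in fluorescence gain of 50% or more versus controls, with final raw signal at or below 3038400; inconclusive = same 50% fall but final raw signal above 3038400; inactive = fall in fluorescence gain under 50%.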 The sample holds actives, similar compounds and a random draw of the others, so the mix is not that of the screen.
Outcome codes: active, inactive

molecule	category
CCc1nnc(NS(=O)(=O)c2ccc(NC(=O)c3cccc(OC(F)(F)C(F)F)c3)cc2)s1	inactive
COc1ccc(NS(=O)(=O)c2ccc(C)c(C(=O)NCC(c3cccs3)N3CCOCC3)c2)cc1 (stereo not given)	inactive
COc1ccc(CNC(=O)COC(=O)CCS(=O)(=O)c2ccc(C)cc2)cc1OC	inactive
CCOc1ccc(CCNC(=O)CN2C(=O)NC3(CCc4ccccc43)C2=O)cc1OCC (stereo not given)	inactive
O=C(CC(c1ccccc1)c1ccccc1)NCC(O)c1ccc([N+](=O)[O-])cc1 (stereo not given)	active
COc1ccc(C2CC(c3ccc([N+](=O)[O-])cc3)=NN2C(C)=O)cc1 (stereo not given)	inactive
O=C(CCNC(=O)c1ccc(Br)cc1)NCCCc1ccccc1	inactive
COc1ccc(NC(=O)CN(C)C(=O)c2ccc(COc3ccccc3)o2)cc1	inactive
COc1ccc(S(=O)(=O)Nc2ccc3oc(C)c(C(C)=O)c3c2)cc1	inactive
Cc1nc2ccccc2c(=O)n1-c1ccc(NS(=O)(=O)c2ccc(F)cc2F)cc1	inactive

###

molecular target: CAAX prenyl protease 2 (Saccharomyces cerevisiae (strain ATCC 204508 / S288c)); assay: blockers of Rce1 CaaX peptide cleavage – biochemical, fluorescence, cell-free homogeneous, primary screen (AID 2563); conditions: yeast membranes, quenched prenylated peptide cleavage fluorescence
The campaign covered roughly 290,000 compounds. About 800 (0.28%) were called active. This excerpt belongs to a sample that is enriched for actives.
metric: outcome

compound	metric	val
COc1ccc2c(c1)O/C(=C\c1ccccc1O)C2=O	outcome	inactive
COc1ccc(S(=O)(=O)N2CCCCC2)cc1NC(=O)c1cc([N+](=O)[O-])ccc1N1CCOCC1	outcome	inactive
COc1ccc(N2CC(C(=O)NCCN3C(=O)S/C(=C\c4cccnc4)C3=O)CC2=O)c(OC)c1 (stereo not drawn)	outcome	inactive

###

target: CAAX prenyl protease 2 (Saccharomyces cerevisiae (strain ATCC 204508 / S288c)) (UniProt Q03530); test: blockers of Rce1 CaaX peptide cleavage – biochemical, fluorescence, cell-free homogeneous, primary screen (AID 2563); conditions: yeast membranes, quenched prenylated peptide cleavage fluorescence
The whole screen tested about 290,000 compounds, of which about 800 (0.28%) were called active.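 Rule for the calls: active = fall in fluorescence gain of 50% or more versus controls, with final raw signal at or below 3038400; inconclusive = same 50% fall but final raw signal above 3038400; inactive = fall in fluorescence gain under 50%.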 This is one part of a sample in which actives are shown more often than they occur.
Possible outcomes: active, inactive

compound	category
Cc1nn(C)cc1C(=O)c1ccccc1	inactive
COc1ccc(C)cc1S(=O)(=O)Nc1cc2c3c(c1)CCC(=O)N3CCC2	inactive
CCOC(=O)c1c(C)c(C(=O)NCCc2ccc(S(N)(=O)=O)cc2)c(C)n1CC	inactive
CCOC(=O)N1CCN(C(=O)c2ccccc2SCC(=O)NCC2CCCCC2)CC1	inactive
Cc1ccc(OCc2nc3ccccc3n2C)cc1	inactive
CCN(CC)S(=O)(=O)c1ccc(-c2cn3ccc(C)cc3n2)cc1	inactive
COc1ccc(/C=N/NC(=O)c2cc(-c3cccc(C)c3)nc3ccccc23)cc1O	inactive
O=C(NC1CCCCC1)c1ccc(-c2ccc(Cl)cc2)o1	inactive
O=C(CNC(=O)c1ccccc1Br)NCCSc1ccc(Br)cc1	inactive
COc1ccc(-c2cn3ccsc3n2)cc1	inactive
COC(C[C@@H](O)C[C@@H](O)[C@H](C)OCc1ccccc1)OC	inactive
CCCCCCCCCCOC(=O)Cn1c(COc2ccc(C)cc2)[n+](C)c2ccccc21	active
Cc1ccc(C2CC(c3cccc(NS(C)(=O)=O)c3)=NN2S(C)(=O)=O)cc1 (stereo not drawn)	inactive
COc1ccc(OCc2cn3c(C)cc(C)nc3n2)cc1	inactive
CCCCCCCCCCOC(=O)Cn1c(COc2cccc(OC)c2)[n+](C)c2ccccc21	active
C=CCNC(=O)C1CC2c3ccccc3C1c1ccccc12 (stereo not drawn)	inactive
COC(=O)C1CCN(C(=O)NC2CC(=O)N(c3ccc4c(c3)OCCO4)C2)CC1 (stereo not drawn)	inactive
COc1ccc(N2CCN(S(=O)(=O)c3cc4c5c(c3)C(C)C(=O)N5CCC4)CC2)cc1 (stereo not drawn)	inactive
O=C(CN1C(=O)NC2(CCCC2)C1=O)OCCOc1ccc(F)cc1	inactive
CCCc1cc(=O)[nH]c(SCC(=O)c2c(N)n(CC(C)C)c(=O)n(C)c2=O)n1	inactive
Cc1cc(C)nc(SCc2cn3c(C)cc(C)nc3n2)n1	active
COc1ccccc1C(CNC(=O)c1cccc(NS(=O)(=O)c2ccc(Br)cc2)c1)N(C)C (stereo not drawn)	inactive
COc1cccc(OCC(=O)Nc2ccccc2C(N)=O)c1	inactive
COC(C[C@H](O)CC(=O)[C@@H](C)OCc1ccccc1)OC	inactive
CCCOc1ccccc1C(=O)NCCCC(=O)O	active
COc1ccc(/C=N/NC(=O)c2ccccc2)cc1OS(=O)(=O)c1ccccc1	inactive
COc1ccc(C(=NN)c2ccc(OC)cc2)cc1	inactive
CC(C)CN(C(=O)Cn1c(=O)cnc2ccccc21)C1CCS(=O)(=O)C1 (stereo not drawn)	inactive
Cc1cc(C)c(S(=O)(=O)N2CCCC2CNC(=O)c2ccc3c(c2)OCO3)c(C)c1 (stereo not drawn)	inactive
CCc1cccc(C)c1NC(=O)COC(=O)CNC(=O)c1cccs1	inactive
COc1cccc(OCc2cc(/C=N/NC(=O)c3nc(Cl)c(Cl)c(N)c3Cl)ccc2OC)c1	inactive
O=C(Nc1ccc(F)c([N+](=O)[O-])c1)C1CCCO1 (stereo not drawn)	inactive
COc1ccc(CCNC(=O)c2ccccc2OCc2ccccc2)cc1	inactive
CCn1c(=N)n(CC(=O)c2cccc(OC)c2)c2ccccc21	inactive
Cc1noc(C)c1C(=O)NCCc1ccc(S(N)(=O)=O)cc1	inactive
Cc1ccc(NC(=O)C2CC(=O)N(c3ccc4c(c3)OCCO4)C2)cc1S(=O)(=O)N1CCCCCC1 (stereo not drawn)	inactive
CN(CC(=O)NNC(=O)CNC(=O)c1ccccc1Cl)S(=O)(=O)c1ccc(Cl)cc1	inactive
CCCCOCCCNC(=O)c1ccccc1OCC	inactive
COc1ccc(/C=N/NC(=O)c2ccc(Cl)cc2)cc1COC(C)=O	active
CCCCN(C(=O)CCNC(=O)NC12CC3CC(CC(C3)C1)C2)c1c(N)n(CCCC)c(=O)[nH]c1=O	inactive
Cc1onc(-c2ccccc2Cl)c1C(=O)N(Cc1ccc(N(C)C)cc1)C(C)C	inactive
COC(C[C@@H](O)C[C@H](O)[C@H](C)OCc1ccccc1)OC	active
CC1(C)O[C@H]2CC(=O)OCC23[C@H]2CC[C@@]4(C)[C@H](c5ccoc5)OC(=O)[C@H]5O[C@]54[C@]2(C)C(=O)C[C@@H]13 (stereo partly drawn)	inactive
